System Under Test: human small ubiquitin-like modifier 1 (human) (UniProt P63165)
Assay: SPR (monobody on the chip via His-tag, target flowed); estimated Kd [Continued]
pKd: −log10 of the molar value.
Parameter Measured: pKd

Recorded pKd, per entry:
For this binder ( SEQ ID NO 87 (designed binder) VSSVPTKLEVVAATPTSLLISWDASSSSVSHYHITYGETGGNSPVQEFTVPGSSSTATISGLSPGVDYTITVYAFYSDDDLYFAFSPSSINYRT ), measured pKd is 6.19

The recorded pKd for SEQ ID NO 89 (designed binder) VSSVPTKLEVVAATPTSLLISWDASSSSVSHYAITYGETGGNSPVQEFTVPGSSSTATISGLSPGVDYTITVYAYHSYDDIFLADSPSSINYRT is 6.28

I = SEQ ID NO 95 (designed binder) VSSVPTKLEVVAATPTSLLISWDASSSSVSHYAITYGETGGNSPVQEFTVPGSSSTATISGLSPGVDYTITVFAYYSYDDIYYAYSPSSINYRT
II = SEQ ID NO 91 (designed binder) VSSVPTKLEVVAATPTSLLISWDASSSSVSHYEITYGETGGNSPVQEFTVPGSSSTATISGLSPGVDYTITVAAYHSYHDIFYAVSPSSINYRT
Returns: the label, I or II , whose recorded pKd is the lower number. The response must carry the label of the picked entry. I
(I: 6.13, II: 6.55)
